Target: RAC-alpha serine/threonine-protein kinase (Homo sapiens, UniProt P31749)
Sequence (P31749 whole entry): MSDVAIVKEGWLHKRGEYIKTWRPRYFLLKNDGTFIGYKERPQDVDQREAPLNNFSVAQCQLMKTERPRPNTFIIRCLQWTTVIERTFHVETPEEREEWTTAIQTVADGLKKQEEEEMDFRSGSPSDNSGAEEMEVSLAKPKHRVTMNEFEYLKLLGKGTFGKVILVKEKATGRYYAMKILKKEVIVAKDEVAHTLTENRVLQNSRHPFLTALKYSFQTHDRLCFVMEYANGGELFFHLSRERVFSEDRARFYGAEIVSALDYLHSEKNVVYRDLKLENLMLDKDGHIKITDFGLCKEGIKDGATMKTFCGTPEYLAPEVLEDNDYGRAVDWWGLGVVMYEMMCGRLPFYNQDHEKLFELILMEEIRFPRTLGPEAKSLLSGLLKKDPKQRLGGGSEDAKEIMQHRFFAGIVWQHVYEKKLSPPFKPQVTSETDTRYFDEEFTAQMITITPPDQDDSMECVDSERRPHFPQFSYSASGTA
Assay: Inhibition of Akt
Measurement kind: log10(IC50) (log10 of the value in nM)

- Molecule: "CCc1ncc(OC[C@@H](N)Cc2c[nH]c3ccccc23)cc1-c1ccc2cnccc2c1"
  System: "RAC-alpha serine/threonine-protein kinase (Homo sapiens, UniProt P31749)"
  log10(IC50): -0.10
- Molecule: "CN(C)c1n[nH]c2ccc(-c3cncc(OC[C@@H](N)Cc4c[nH]c5ccccc45)c3)cc12"
  System: "RAC-alpha serine/threonine-protein kinase (Homo sapiens, UniProt P31749)"
  log10(IC50): 1.26
- Molecule: "N[C@H](COc1cncc(C(=O)Nc2ccncc2)c1)Cc1c[nH]c2ccccc12"
  System: "RAC-alpha serine/threonine-protein kinase (Homo sapiens, UniProt P31749)"
  log10(IC50): 3.22
- Molecule: "Nc1n[nH]c2ccc(-c3cncc(OC[C@@H](N)Cc4c[nH]c5ccccc45)c3)cc12"
  System: "RAC-alpha serine/threonine-protein kinase (Homo sapiens, UniProt P31749)"
  log10(IC50): 0.46
- Molecule: "N[C@H](COc1cncc(-c2ccc3c(c2)C(c2ncc[nH]2)C(=O)N3)c1)Cc1c[nH]c2ccccc12 (stereo partly drawn)"
  System: "RAC-alpha serine/threonine-protein kinase (Homo sapiens, UniProt P31749)"
  log10(IC50): 0.86
- Molecule: "N[C@H](COc1cncc(-c2ccc(CO)cc2)c1)Cc1c[nH]c2ccccc12"
  System: "RAC-alpha serine/threonine-protein kinase (Homo sapiens, UniProt P31749)"
  log10(IC50): 3.60
- Molecule: "N[C@H](COc1cncc(/C=C/c2ccncc2)c1)C(c1ccccc1)c1ccccc1"
  System: "RAC-alpha serine/threonine-protein kinase (Homo sapiens, UniProt P31749)"
  log10(IC50): 2.44
- Molecule: "N[C@H](COc1cncc(-c2ccc3c(c2)C(F)(F)C(=O)N3)c1)Cc1c[nH]c2ccccc12"
  System: "RAC-alpha serine/threonine-protein kinase (Homo sapiens, UniProt P31749)"
  log10(IC50): 0.18
- Molecule: "N[C@H](COc1cncc(-c2ccc3[nH]nc(C=O)c3c2)c1)Cc1c[nH]c2ccccc12"
  System: "RAC-alpha serine/threonine-protein kinase (Homo sapiens, UniProt P31749)"
  log10(IC50): 3.27
- Molecule: "Cn1cc(C(CN)Oc2cncc(/C=C/c3ccncc3)c2)c2ccccc21 (stereo not drawn)"
  System: "RAC-alpha serine/threonine-protein kinase (Homo sapiens, UniProt P31749)"
  log10(IC50): 2.88
- Molecule: "CC(C)=C1C(=O)Nc2ccc(-c3cncc(OC[C@@H](N)Cc4c[nH]c5ccccc45)c3)cc21"
  System: "RAC-alpha serine/threonine-protein kinase (Homo sapiens, UniProt P31749)"
  log10(IC50): 1.90
- Molecule: "Cc1ccc(F)cc1C[C@H](N)COc1cncc(-c2cc3c(C)n[nH]c3cn2)c1"
  System: "RAC-alpha serine/threonine-protein kinase (Homo sapiens, UniProt P31749)"
  log10(IC50): 0.59
- Molecule: "N[C@H](COc1cncc(-c2cc3ccncc3s2)c1)Cc1c[nH]c2ccccc12"
  System: "RAC-alpha serine/threonine-protein kinase (Homo sapiens, UniProt P31749)"
  log10(IC50): 2.25
- Molecule: "C(=C\\c1cncc(OCC2CCN2)c1)/c1ccncc1 (stereo not drawn)"
  System: "RAC-alpha serine/threonine-protein kinase (Homo sapiens, UniProt P31749)"
  log10(IC50): 4.04
- Molecule: "CC(C)c1nc(-c2ccccc2)c(-c2ccc(CN3CCC(n4c(=O)[nH]c5ccccc54)CC3)cc2)[nH]c1=O"
  System: "RAC-alpha serine/threonine-protein kinase (Homo sapiens, UniProt P31749)"
  log10(IC50): 4.33
- Molecule: "N[C@H](CNc1cnc(Cl)c(/C=C/c2ccncc2)c1)Cc1c[nH]c2ccccc12"
  System: "RAC-alpha serine/threonine-protein kinase (Homo sapiens, UniProt P31749)"
  log10(IC50): 1.90
- Molecule: "CCC1C(=O)Nc2ccc(-c3cncc(OC[C@@H](N)Cc4c[nH]c5ccccc45)c3)cc21 (stereo partly drawn)"
  System: "RAC-alpha serine/threonine-protein kinase (Homo sapiens, UniProt P31749)"
  log10(IC50): 1.72
- Molecule: "CCc1c(C)[nH]c(C2C(=O)Nc3ccc(-c4cncc(OC[C@@H](N)Cc5c[nH]c6ccccc56)c4)cc32)c1C (stereo partly drawn)"
  System: "RAC-alpha serine/threonine-protein kinase (Homo sapiens, UniProt P31749)"
  log10(IC50): 1.61
- Molecule: "N[C@H](COc1cncc(-c2cccc3cnccc23)c1)Cc1c[nH]c2ccccc12"
  System: "RAC-alpha serine/threonine-protein kinase (Homo sapiens, UniProt P31749)"
  log10(IC50): 2.52
- Molecule: "N[C@H](COc1cncc(-c2ccc3c(c2)C(=O)C(=O)N3)c1)Cc1c[nH]c2ccccc12"
  System: "RAC-alpha serine/threonine-protein kinase (Homo sapiens, UniProt P31749)"
  log10(IC50): 0.73
- Molecule: "O=c1[nH]c2ccccc2n1C1CCN(Cc2ccc(-c3nc4ccc(-n5cnnn5)cc4nc3-c3ccccc3)cc2)CC1"
  System: "RAC-alpha serine/threonine-protein kinase (Homo sapiens, UniProt P31749)"
  log10(IC50): 1.80
- Molecule: "N[C@H](COc1cncc(-c2ccc3nnccc3c2)c1)Cc1c[nH]c2ccccc12"
  System: "RAC-alpha serine/threonine-protein kinase (Homo sapiens, UniProt P31749)"
  log10(IC50): 2.33
- Molecule: "CCc1n[nH]c2ccc(-c3cncc(OC[C@@H](N)Cc4c[nH]c5ccccc45)c3)cc12"
  System: "RAC-alpha serine/threonine-protein kinase (Homo sapiens, UniProt P31749)"
  log10(IC50): 0.06

// data source = ChEMBL document CHEMBL1154070
